- Tested on: ACHN
- PROTOCOL TEXT: NCI tumour cell line growth inhibition, 48 h
Calls of active or inactive are those of the source. Rule as the data show it: active = GI50 up to about 1.1 µM and inactive = higher.
Respond using exactly one of the listed classes: 1 (active), 0 (inactive)

Previously resolved entries follow.
COc1ccc2c(=O)c(-c3cc4c(cc3OC)OCO4)coc2c1 : 0
C=CC(=O)C#Cc1cnc(OC)nc1OC : 0
CN1c2ccccc2S(=O)(=O)n2c(COc3ccccc3)nnc21 : 0

Qu. Could you please tell me the result logged for O=C(CC(C(=O)c1ccsc1)c1cccs1)c1cccs1 (stereo unspecified) in this assay?
Ans. 0

Qu. Could you please tell me the result logged for `O=C(/C=C1\Nc2ccccc2C(=O)N1c1ccccc1Cl)c1ccccc1` in this assay?
Ans. 0

Qu. Could you please tell me the result logged for `Cc1ccc(C(c2c(O)c3ccccc3n(-c3ccccc3)c2=O)c2c(O)c3ccccc3n(-c3ccccc3)c2=O)cc1` in this assay?
Ans. 0

Qu. Could you please tell me the result logged for `O=C(CCC(=O)Nc1ccc(Cl)c(Cl)c1)CC(=O)c1ccc2ccccc2c1` in this assay?
Ans. 0

Qu. Could you please tell me the result logged for `CC1=CC(C)(C)NN1C1=NS(=O)(=O)c2ccccc2N1C` in this assay?
Ans. 0

Qu. Could you please tell me the result logged for `CN(C(=O)c1ccc(Cl)cc1)C(=S)N1CCN(c2ccccn2)CC1` in this assay?
Ans. 0
